Catalogue of melting point values
endpoint.label: melting point

>  <smiles.entry>
CNc1cc(Cl)nc(C(=O)O)c1Cl

>  <reported.measurement>
170 to 172 °C

$$$$
>  <smiles.entry>
NC(=O)c1nc(Cl)cc(N)c1Cl

>  <reported.measurement>
240 to 241 °C

$$$$
>  <smiles.entry>
Nc1cc(Oc2cc(Cl)cc(Cl)c2)nc(C(=O)O)c1Cl

>  <reported.measurement>
196 °C

$$$$
>  <smiles.entry>
Nc1c(Cl)c(C(=O)O)nc(C(F)(F)F)c1Cl

>  <reported.measurement>
178 °C (dec.)

$$$$
>  <smiles.entry>
Nc1c(Cl)c(C(=O)O)nc(Cl)c1C(F)(F)F

>  <reported.measurement>
173 °C

$$$$
>  <smiles.entry>
Nc1cc(Br)nc(C(=O)O)c1Br

>  <reported.measurement>
205 °C (dec.)

$$$$
>  <smiles.entry>
CCCCCOC(=O)c1nc(Cl)cc(N)c1Cl

>  <reported.measurement>
71 to 73 °C

$$$$
>  <smiles.entry>
Nc1c(Cl)c(Oc2ccccc2)nc(C(=O)O)c1Cl

>  <reported.measurement>
158 to 160 °C

$$$$
>  <smiles.entry>
Nc1cc(Cl)nc(C(=O)O)c1Br

>  <reported.measurement>
175 °C (dec.)

$$$$
>  <smiles.entry>
COc1ccc(Oc2cc(N)c(Cl)c(C(=O)O)n2)cc1

>  <reported.measurement>
174 °C

$$$$
>  <smiles.entry>
Nc1cc(Br)nc(C(=O)O)c1Cl

>  <reported.measurement>
182 to 183 °C

$$$$

====

Test system: morningglory (Ipomoea hederacea)
Assay: Preemergence herbicidal activity
Assay type: in vivo
Details: Ipomoea, 504 h; Table 6 (headed Post-emergent; text: preemergence); rate 560 ppm; after 3 weeks; read-out: % Control IPOHE

>  <smiles.entry>
Nc1cc(Br)nc(C(=O)O)c1Br

>  <experimental.target>
morningglory (Ipomoea hederacea)

>  <pest or weed control at 560 ppm>
100%

$$$$
>  <smiles.entry>
COc1c(Cl)nc(C(=O)O)c(Cl)c1N

>  <experimental.target>
morningglory (Ipomoea hederacea)

>  <pest or weed control at 560 ppm>
100%

$$$$
>  <smiles.entry>
CNc1cc(Cl)nc(C(=O)O)c1Cl

>  <experimental.target>
morningglory (Ipomoea hederacea)

>  <pest or weed control at 560 ppm>
100%

$$$$
>  <smiles.entry>
CCNc1cc(Cl)nc(C(=O)O)c1Cl

>  <experimental.target>
morningglory (Ipomoea hederacea)

>  <pest or weed control at 560 ppm>
100%

$$$$
>  <smiles.entry>
Nc1c(F)c(Br)nc(C(=O)O)c1F

>  <experimental.target>
morningglory (Ipomoea hederacea)

>  <pest or weed control at 560 ppm>
80%

$$$$
>  <smiles.entry>
Nc1c(Cl)c(C(=O)O)nc(Cl)c1C(F)(F)F

>  <experimental.target>
morningglory (Ipomoea hederacea)

>  <pest or weed control at 560 ppm>
90%

$$$$
>  <smiles.entry>
Nc1cc(Oc2cccc(Cl)c2)nc(C(=O)O)c1Cl

>  <experimental.target>
morningglory (Ipomoea hederacea)

>  <pest or weed control at 560 ppm>
100%

$$$$
>  <smiles.entry>
Nc1c(Cl)c(C(=O)O)nc(Cl)c1Br

>  <experimental.target>
morningglory (Ipomoea hederacea)

>  <pest or weed control at 560 ppm>
100%

$$$$
>  <smiles.entry>
Cc1cccc(Oc2cc(N)c(Cl)c(C(=O)O)n2)c1

>  <experimental.target>
morningglory (Ipomoea hederacea)

>  <pest or weed control at 560 ppm>
70%

$$$$
>  <smiles.entry>
CN(C)c1cc(Cl)nc(C(=O)O)c1Cl

>  <experimental.target>
morningglory (Ipomoea hederacea)

>  <pest or weed control at 560 ppm>
100%

$$$$
>  <smiles.entry>
CCCCNc1cc(Cl)nc(C(=O)O)c1Cl

>  <experimental.target>
morningglory (Ipomoea hederacea)

>  <pest or weed control at 560 ppm>
100%

$$$$
>  <smiles.entry>
Nc1c(F)c(Cl)nc(C(=O)O)c1Cl

>  <experimental.target>
morningglory (Ipomoea hederacea)

>  <pest or weed control at 560 ppm>
100%

$$$$
>  <smiles.entry>
O=C(O)c1nc(Cl)cc(N2CCCC2)c1Cl

>  <experimental.target>
morningglory (Ipomoea hederacea)

>  <pest or weed control at 560 ppm>
80%

$$$$
>  <smiles.entry>
CC(C)COc1nc(C(=O)O)c(Cl)c(N)c1Cl

>  <experimental.target>
morningglory (Ipomoea hederacea)

>  <pest or weed control at 560 ppm>
0%

$$$$
>  <smiles.entry>
Nc1cc(Br)nc(C(=O)O)c1Cl

>  <experimental.target>
morningglory (Ipomoea hederacea)

>  <pest or weed control at 560 ppm>
100%

$$$$
>  <smiles.entry>
NC(=O)c1nc(Cl)cc(N)c1Cl

>  <experimental.target>
morningglory (Ipomoea hederacea)

>  <pest or weed control at 560 ppm>
85%

$$$$
>  <smiles.entry>
O=C(O)c1nc(Cl)cc([N+](=O)[O-])c1Cl

>  <experimental.target>
morningglory (Ipomoea hederacea)

>  <pest or weed control at 560 ppm>
100%

$$$$
>  <smiles.entry>
Nc1cc(Cl)nc(C(=O)O)c1Br

>  <experimental.target>
morningglory (Ipomoea hederacea)

>  <pest or weed control at 560 ppm>
100%

$$$$
>  <smiles.entry>
COc1c(C(=O)O)nc(Br)c(Cl)c1N

>  <experimental.target>
morningglory (Ipomoea hederacea)

>  <pest or weed control at 560 ppm>
100%

$$$$
